# Experimental system: human plasma kallikrein (Homo sapiens, UniProt P03952)
# Sequence (P03952 391-638 limits assumed): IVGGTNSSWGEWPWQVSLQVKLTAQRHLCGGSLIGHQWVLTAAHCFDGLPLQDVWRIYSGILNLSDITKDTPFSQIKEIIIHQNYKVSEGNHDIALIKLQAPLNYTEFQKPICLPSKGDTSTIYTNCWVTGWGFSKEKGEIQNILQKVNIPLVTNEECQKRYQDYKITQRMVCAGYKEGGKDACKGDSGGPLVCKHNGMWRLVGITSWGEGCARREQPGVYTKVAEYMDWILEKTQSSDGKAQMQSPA
# Sequence (P03952 20-390 partner limits assumed): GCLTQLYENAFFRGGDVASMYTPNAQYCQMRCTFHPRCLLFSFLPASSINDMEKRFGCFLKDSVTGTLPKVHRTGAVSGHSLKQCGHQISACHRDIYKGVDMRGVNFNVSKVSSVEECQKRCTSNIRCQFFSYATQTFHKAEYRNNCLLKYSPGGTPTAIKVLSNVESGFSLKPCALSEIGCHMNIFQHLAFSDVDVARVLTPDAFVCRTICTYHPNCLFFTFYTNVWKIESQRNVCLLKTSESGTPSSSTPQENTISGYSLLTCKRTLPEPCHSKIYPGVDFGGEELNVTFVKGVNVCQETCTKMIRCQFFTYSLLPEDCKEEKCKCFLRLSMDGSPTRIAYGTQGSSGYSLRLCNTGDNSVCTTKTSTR
# Procedure text: Anti-plasma kallikrein activity: inhibition of S-2302 decomposition
# Format: biochemical
# Conditions used: Table 2; S-2302 substrate, pH 7.8, 37° C.; read-out: Plasma Kallikrein S-2302 (I50)
Reported property: IC50 (µM)

[P] CC(=O)c1ccc(NC(=O)C(Cc2ccc(Oc3cc(Cl)ccc3[N+](=O)[O-])cc2)NC(=O)C2CCC(CN)CC2)cc1 (stereo not shown) [compound 123]
[Q] NCc1ccc(C(=O)N[C@@H](Cc2ccccc2)C(=O)Nc2cccc(C(F)(F)F)c2)cc1 [compound 131]
[R] CC(=O)c1ccc(NC(=O)[C@H](Cc2ccc(OCc3cccc(C(F)(F)F)c3)cc2)NC(=O)[C@H]2CC[C@H](CN)CC2)cc1 [compound 55]
-- ask Place the items in sequence of falling IC50. Give your ranking as a list of the labels in the requested order.
-- reply Q, R, P
